Below is a list of entries, each paired with its recorded OX2/OX1 value.
Molecular target: orexin 1 (OX1) receptor (Homo sapiens, UniProt O43613)
Sequence (O43613 1-425): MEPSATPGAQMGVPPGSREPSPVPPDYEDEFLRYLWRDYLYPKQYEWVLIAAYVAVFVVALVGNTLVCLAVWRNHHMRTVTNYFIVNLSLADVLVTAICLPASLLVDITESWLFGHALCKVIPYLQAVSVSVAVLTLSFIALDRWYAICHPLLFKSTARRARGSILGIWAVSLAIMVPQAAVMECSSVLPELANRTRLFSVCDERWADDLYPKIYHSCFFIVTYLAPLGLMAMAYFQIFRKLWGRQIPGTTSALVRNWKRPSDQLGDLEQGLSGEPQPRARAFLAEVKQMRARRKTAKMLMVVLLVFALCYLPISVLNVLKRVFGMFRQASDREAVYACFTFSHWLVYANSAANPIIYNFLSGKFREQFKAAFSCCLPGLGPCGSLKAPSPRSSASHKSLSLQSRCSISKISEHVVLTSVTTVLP
Test: OX1 calcium mobilization functional assay
Type: cell-based
Settings: ratio of Ke values

{"molecule": "COc1ccc(CC2c3cc(OC)c(OC)cc3CCN2CC(=O)N(C)Cc2ccccc2)cc1OC (stereo not shown) [Compound 39]", "OX2/OX1": ">4.8"}
{"molecule": "CCCCCCOc1cc2c(cc1OC)CCN(CC(=O)NCc1ccccc1)C2Cc1ccc(OC)c(OC)c1 (stereo not shown) [Compound 15]", "OX2/OX1": ">31.7"}
{"molecule": "CCOc1cc2c(cc1OC)CCN(CC(=O)NCc1cccnc1)C2Cc1ccc(OC)c(OC)c1 (stereo not shown) [Compound 74]", "OX2/OX1": ">637"}
{"molecule": "CCCOc1cc2c(cc1OC)CCN(CC(=O)NCc1ccccn1)C2Cc1ccc(OC)c(OC)c1 (stereo not shown) [Compound 69]", "OX2/OX1": ">485"}
